- run_description: protein stability index of a GFP-peptide fusion (GPS, HEK-293T) (PSI 1-6); higher = more stable;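 note: 24-mer peptide tiles fused after GFP, lentivirally expressed, FACS-sorted into six equal bins by GFP/DsRed ratio, decoded by Illumina sequencing, PSI is the read-weighted mean bin number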
- condition: treatment: MLN4924 1 uM, 8 h; c terminus: a fixed tail appended
Would you mind telling me the reported protein stability index of each entry?
Lab note: jot the number down without any unit.

I would be grateful if you could share the reported protein stability index for INLATMNSCINPIALYFVSKKFKN [EDNRA] .
2.01

I would be grateful if you could share the reported protein stability index for KLPFCAMGVSSVIHPKNPHAPTIH [CPOX] .
2.52

I would be grateful if you could share the reported protein stability index for SQSFSLYVKYQVAIHQDPPDECGK [ATE1] .
2.5

I would be grateful if you could share the reported protein stability index for AAVKLADFGLAIEVQGDQQAWFGF [CAMK2B] .
2.62

I would be grateful if you could share the reported protein stability index for VLDLQRIFALYSSLKFKSRVPQTW [PLD5] .
2.09

I would be grateful if you could share the reported protein stability index for DFPDILEQQRKLETYLQNHFAEEE [TENT5C] .
4.56

I would be grateful if you could share the reported protein stability index for GRGAQGENERVRGLETGDWGGAPK [ZSWIM9] .
4.98

I would be grateful if you could share the reported protein stability index for EPGTPSSSPDDKLLTSPRAINNLV [KLHL14] .
4.91

I would be grateful if you could share the reported protein stability index for FYKRRGASDLSSEEGWRLFKIDKE [SAT1] .
3.62

I would be grateful if you could share the reported protein stability index for VQRHLYLQDVIMQVADVPEKPRVP [ZNF511] .
2.9

I would be grateful if you could share the reported protein stability index for GLNSSWVELPMNSSNGNDNGNGKN [BNIP3L] .
5.54

I would be grateful if you could share the reported protein stability index for TPIQLQELLALETALGGQCVDRQE [TCAP] .
4.47

I would be grateful if you could share the reported protein stability index for CGLLPISPEALSLGEVAYHDYHGI [ADD1] .
2.35

* * *

- run_description: protein stability index of a GFP-peptide fusion (GPS, HEK-293T) (PSI 1-6); higher = more stable
- condition: treatment: MLN4924 1 uM, 8 h; c terminus: a fixed tail appended
Each entry gets No if its protein stability index stays under 3, and Yes if its protein stability index is 3 or above.

Reported protein stability index reaches at least 3 for LLYSEVTASSLVKINLQGDIVDRG [ADD1] ?
No

Reported protein stability index reaches at least 3 for LGYFIRSWRTLAILVNLQGTVVFL [SLC22A15] ?
No

Reported protein stability index reaches at least 3 for LGQNDTGFSCDGTANTFRVMFKEP [BTBD1] ?
Yes

Reported protein stability index reaches at least 3 for LTVRLHTQSVSECITEDGRTVAVG [PWWP2B] ?
Yes

Reported protein stability index reaches at least 3 for CKSGAAAKGGFSGCSAVLSGGSSS [KRT71] ?
Yes

Reported protein stability index reaches at least 3 for AALTNKHSQELTNEKEKALQAQVQ [SASS6] ?
Yes

Reported protein stability index reaches at least 3 for LPPDALIIEYRGKFMLREQFEANG [KMT2E] ?
No

Reported protein stability index reaches at least 3 for ESKVREATNDDPWGPSGQLMGEIA [CLINT1] ?
Yes

Reported protein stability index reaches at least 3 for LDQLLRHVMNPLETLSITNCRLSE [PRAME] ?
No

Reported protein stability index reaches at least 3 for EIELQAQHNLRDSLENTLTESEAH [KRT34] ?
Yes

Reported protein stability index reaches at least 3 for QPAKKPLLWSDPADNKIVSHLLVA [ESRRG] ?
No

Reported protein stability index reaches at least 3 for MTQQGAALQNYNNELVKCIEELCQ [SSNA1] ?
Yes

Reported protein stability index reaches at least 3 for RHPPKVGDDSDLSEGFESDSSHDS [SMG5] ?
Yes

Reported protein stability index reaches at least 3 for FNMLHDNSKPCISLNGPLSTSRHV [ADAMTS4] ?
Yes

Reported protein stability index reaches at least 3 for LAVCLAPSLFHLNTLKRENSSPRV [DLC1] ?
No

Reported protein stability index reaches at least 3 for SQDFVGEKLGSGEPSHSVKVHTVP [ATE1] ?
Yes

Reported protein stability index reaches at least 3 for HETESTSDKETDIDDRYGDLDSRT [CDS1] ?
Yes

Reported protein stability index reaches at least 3 for PNYEFKLGKITFIRNSRPLVKKVE [UFD1] ?
No

Reported protein stability index reaches at least 3 for YTRLGEMNNAVRNLQELLELDSSS [CEP70] ?
Yes

Reported protein stability index reaches at least 3 for SRLPAKCPGKGAWSIPWKWLFGAT [FKBP8] ?
No

Reported protein stability index reaches at least 3 for GLNLGKKISVPRDVMLEELSLLTN [MYOZ1] ?
Yes

Reported protein stability index reaches at least 3 for CNGILTEKMEEEEQTCDPDSSLHW [ZNF396] ?
Yes

Reported protein stability index reaches at least 3 for LPSVTDIRRPRLYLLQWLKSDKAL [PLK2] ?
No

Reported protein stability index reaches at least 3 for IMLRSNESFTMDDMSWTCGNQDYK [VDR] ?
No

Reported protein stability index reaches at least 3 for MLSHDNITWIAGAVTKDFKLTDKH [ACSBG2] ?
No

Reported protein stability index reaches at least 3 for KFYAVLKGTILYLQKDEYRPDKAL [PSD2] ?
No

Reported protein stability index reaches at least 3 for NETADLGLDIGAQGEPLGYRQDDP [CTNNB1] ?
Yes

* * *

- run_description: protein stability index of a GFP-peptide fusion (GPS, HEK-293T) (PSI 1-6); higher = more stable
- condition: treatment: MLN4924 1 uM, 8 h; c terminus: a fixed tail appended
outcome_measure: protein stability index
Lab note: jot the number down without any unit.

I would be grateful if you could share the reported protein stability index for LRQRESKWLDMLNNWDKWMAKKHK [TBC1D10A] .
3.2

I would be grateful if you could share the reported protein stability index for EFFRESVNRFGTYPALASKNGKKW [ACSBG2] .
3.2

I would be grateful if you could share the reported protein stability index for EFLTNELSRKLMQLQHEKAELEQH [CCDC6] .
3.05

I would be grateful if you could share the reported protein stability index for AERRRAGRLLLTLPLLRQTAGKVL [ESRRA] .
2.27

I would be grateful if you could share the reported protein stability index for LLGSSTACIVVLDRTSHRLHTANL [PPTC7] .
2.46

I would be grateful if you could share the reported protein stability index for RTDYSGRGELSARQMHLARFLRML [RAD51] .
2.38

I would be grateful if you could share the reported protein stability index for RVQAAAFGPGQTLLSSVHVLDLEA [ALKBH7] .
3.3

I would be grateful if you could share the reported protein stability index for LPRRRGLRKKKTTKLRLERVKFRR [NEUROD6] .
3.97

I would be grateful if you could share the reported protein stability index for TAIRPLKILPWSPEKIGTRFLLYT [PNLIPRP1] .
2.37

I would be grateful if you could share the reported protein stability index for CLLSSNSRSLLTGGYNLASVSVWD [TLE6] .
2.18

I would be grateful if you could share the reported protein stability index for RNIMNLIDIVAIIPYFITLGTELA [KCNA3] .
2.97

I would be grateful if you could share the reported protein stability index for EKRERALEEVERAILEMKWKVRAE [ZBED2] .
3.74

I would be grateful if you could share the reported protein stability index for DVDLTIHGRHIDCPATWGPSVEQA [FOXJ1] .
3.94

I would be grateful if you could share the reported protein stability index for SYATEADIISTVEFNHTGELLATG [PPP2R2B] .
3.94

I would be grateful if you could share the reported protein stability index for AGAARVARWRRLRLQQLRRLRGLL [FBXO33] .
3.74

I would be grateful if you could share the reported protein stability index for LYRGLAPNFMKVIPAVSISYVVYE [SLC25A25] .
3.25

I would be grateful if you could share the reported protein stability index for CRKFPRDMKAMSPENQEYFEKHRW [RHOBTB2] .
3.18

I would be grateful if you could share the reported protein stability index for YRWHINFTTFFIDCMAALGLAYDR [SCD] .
2.61

I would be grateful if you could share the reported protein stability index for LVVPNKGYSSLDQSPDEKPLVALD [FAM219A] .
4.42

I would be grateful if you could share the reported protein stability index for GILHYAHGDSQQTHLLKQGRSSMG [CRY1] .
3.52

I would be grateful if you could share the reported protein stability index for ENMVTVGFFSCMGTLCIGAAAFSQ [KCNK9] .
2.91

I would be grateful if you could share the reported protein stability index for EAMYHCCWNTSYCSIKCQQEHWHA [ZMYND11] .
2.65

I would be grateful if you could share the reported protein stability index for SKEDKDLDSSEGSSQEDEDLGLSE [SPANXN3] .
5.62

I would be grateful if you could share the reported protein stability index for SQAHSTLKLANHQRPVSRQVTCLR [TRAF3IP2] .
3.61

I would be grateful if you could share the reported protein stability index for FHRSQTLSYRNGYAIVRRPTVGIG [EFHC1] .
2.54

I would be grateful if you could share the reported protein stability index for ILDIHFLSQADFLVCTFSSQVCRV [FUT8] .
3.09

The origin of these recorded values is the supplement of paper PMC10567573.
